Below: a set of entries, each annotated with reported pEC50.
tested on: HIV-IIIb IN T174I BT; assay: Antiviral assay in MT4 cells, HIV-IIIb IN T174I BT virus (from viral breakthrough); assay type: cell-based, HIV-1; settings: Human immunodeficiency virus 1, IIIB, MT4, 120 h, read-out: T174I BT EC50, MT4 cells, HIV-IIIb IN T174I BT (viral breakthrough), 5 days, CellTiter-Glo
pEC50 (log units): -log10 of the concentration in mol/L.

Sample records with pEC50:
compound	pEC50
CC(=O)N1CC(N2CCC(c3nn(C4CC4)c4ccc(-c5nc6cc(C)c([C@H](OC(C)(C)C)C(=O)O)c(-c7ccc(Cl)cc7)c6s5)cc34)CC2)C1 [Compound 45]	6.76
Cc1cc2nc(-c3ccc4c(c3)c(C3CCN(C5CN(C)C5)CC3)nn4C)sc2c(-c2ccc(Cl)cc2)c1[C@H](OC(C)(C)C)C(=O)O [Compound 31]	6.86

Shifting focus to the compound that follows.
Prompt line: Which pEC50 is reported with HIV-IIIb IN T174I BT for this entry: Cc1cc2nc(-c3ccc4c(c3)c(C3CCN(C(=O)OC(C)(C)C)C3)nn4C)sc2c(-c2ccc(Cl)cc2)c1[C@H](OC(C)(C)C)C(=O)O (stereo partly drawn) [Compound 62] ?
Response line: 6.48

###

tested on: HIV-IIIb IN T174I DE; experiment: Antiviral assay in MT4 cells, HIV-IIIb IN T174I DE virus (from dose escalation passaging); format: cell-based, HIV-1; conditions: Human immunodeficiency virus 1, IIIB, MT4, 120 h, read-out: T174I DE EC50, MT4 cells, HIV-IIIb IN T174I DE (dose escalation), 5 days, CellTiter-Glo
resultType: pEC50
pEC50 (log units): -log10 of the concentration in mol/L.

                                 smilescode  resulttype  experimentalresult
0  Cc1cc2nc(-c3ccc4c(c3)c(C3CN(C)C3)nn4C)sc2c(-c2ccc(Cl)cc2)c1[C@H](OC(C)(C)C)C(=O)O       pEC50                5.38
1  Cc1cc2nc(-c3ccc4c(c3)c(C3CCN(C5CNC5)CC3)nn4C)sc2c(-c2ccc(Cl)cc2)c1[C@H](OC(C)(C)C)C(=O)O       pEC50                6.08

Shifting focus to the molecule that follows.
Prompt line: Report pEC50 for `[2H]C([2H])([2H])n1nc(C2CCN(C3COC3)CC2)c2nc(-c3nc4cc(C)c([C@H](OC(C)(C)C)C(=O)O)c(-c5ccc(Cl)cc5)c4s3)ccc21` please.
Response line: 6.67

###

Below: a set of entries, each annotated with reported EC50.
tested on: HIV-IIIb IN T174I DE; experiment: Antiviral assay in MT4 cells, HIV-IIIb IN T174I DE virus (from dose escalation passaging); assay type: cell-based, HIV-1; details: Human immunodeficiency virus 1, IIIB, MT4, 120 h, read-out: T174I DE EC50, MT4 cells, HIV-IIIb IN T174I DE (dose escalation), 5 days, CellTiter-Glo
Give just the numeric value; nM need not be written.

Prompt line: Report EC50 for COC(=O)N1CC(N2CCC(c3nn(C(F)F)c4ccc(-c5nc6cc(C)c([C@H](OC(C)(C)C)C(=O)O)c(-c7ccc(Cl)cc7)c6s5)nc34)CC2)C1 [Compound 14] please.
Response line: 304

Taken from patent US10800772B2.
